# Tested on: flies (family Muscidae)
# method: Chemosterilancy tests (egg hatch and pupal development; Examples 6-9)
# Assay type: in vivo
# cond: 0.5% in food
observationType: Pupal development (%)

> print(dat)
                                   molecule    observationtype  unitspec  numericvalue
1      COc1ccc(Cc2cc3c(cc2OCCC(C)C)OCO3)cc1  Pupal development         %             0
2  COc1cc2c(cc1C(C)c1ccccc1)OCO2 (centres unmarked)  Pupal development         %             0
3  CCCCOc1cc2c(cc1C(C)c1ccccc1)OCO2 (centres unmarked)  Pupal development         %            34
4  CC(c1ccccc1)c1cc(C(C)(C)C)c(O)c(C(C)(C)C)c1 (centres unmarked)  Pupal development         %             0
5  CCCOc1cc2c(cc1C(C)c1ccccc1)OCO2 (centres unmarked)  Pupal development         %             0

* * *

# System: flies (family Muscidae)
# method: Chemosterilancy tests (egg hatch and pupal development; Examples 6-9)
# Type: in vivo
# cond: 0.1% in food
observationType: Egg hatch (%)

> print(dat)
                                    molecule  numericvalue
 1        CCCCCOc1cc2c(cc1Cc1ccc(OC)cc1)OCO2            31
 2          CCCOc1cc2c(cc1Cc1ccc(OC)cc1)OCO2             0
 3        CCOc1cc2c(cc1Cc1ccc3c(c1)OCO3)OCO2             0
 4      COc1ccc(Cc2cc3c(cc2OCCC(C)C)OCO3)cc1             6
 5  CCCCCOc1cc2c(cc1C(C)c1ccc(OC)cc1)OCO2 (centres unmarked)            70
 6  COc1ccc(Cc2cc(C(C)(C)C)cc(C(C)(C)C)c2O)cc1             0
 7       COc1ccc(Cc2cc3c(cc2OCC(C)C)OCO3)cc1             0
 8             COc1ccc(Cc2ccc3c(c2)OCO3)cc1C            82
 9            COc1ccc(Cc2cc3c(cc2OC)OCO3)cc1             0
10  CC(C)(C)c1cc(Cc2ccccc2)c(O)c(C(C)(C)C)c1             0
11           CCCc1cc2c(cc1Cc1ccc(OC)cc1)OCO2             0
12  CCCOc1cc2c(cc1C(C)c1ccccc1)OCO2 (centres unmarked)             0
13         CCCCOc1cc2c(cc1Cc1ccc(OC)cc1)OCO2            10
14          COc1ccc(Cc2ccc3c(c2)OCO3)c(OC)c1            76
15          COc1c(C)cc(Cc2ccc3c(c2)OCO3)cc1C             6
16  CC(c1ccccc1)c1cc(C(C)(C)C)c(O)c(C(C)(C)C)c1 (centres unmarked)            36
17  CC(c1ccccc1)c1cc(C(C)(C)C)cc(C(C)(C)C)c1O (centres unmarked)             0
